Cited source: PubChem BioAssay AID1918936

Tested on: 349418-098-R-PDC complex spheroid viability;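 also: spheroids exposed to agents for seven days before readout; 100% = DMSO vehicle control wells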
Assay: Anticancer human tumor 349418-098-R-PDC patient-derived lung adenocarcinoma cell line growth inhibition; active = viability on the fitted dose curve at most 10% of control; inactive = the rest
Conditions: second compound 1 µM; first compound 0.3 µM
One label from this list, please: 1 = active, -1 = inactive

[ask] For NS(=O)(=O)OCC1CC(n2ccc3c(NC4CCc5ccccc54)ncnc32)CC1O (stereo not drawn) + NC1CCC(NC2CC2c2ccccc2)CC1 , which call appears in the assay record?
[reply] -1

[ask] State the result this test recorded for Nc1ccccc1NC(=O)c1ccc(CNC(=O)OCc2cccnc2)cc1 + NC1CC1c1ccc(-c2cccc(O)c2)cc1 .
[reply] -1

[ask] Returns: the outcome recorded for COc1cc(C2c3cc4c(cc3C(OC3OC5COC(C)OC5C(O)C3O)C3COC(=O)C23)OCO4)cc(OC)c1O (stereo not drawn) + NC1CC1c1ccc(-c2cccc(O)c2)cc1 in this assay.
[reply] 1

[ask] Can you look up the reported call for O=C(C=Cc1cccc(S(=O)(=O)Nc2ccccc2)c1)NO + NC1CC1c1ccc(-c2cccc(O)c2)cc1 for me?
[reply] -1

[ask] Give the logged outcome of this assay for the following molecule: Nc1ccn(C2OC(CO)C(O)C2(F)F)c(=O)n1 (stereo not drawn) + NC1CC1c1ccc(-c2cccc(O)c2)cc1
[reply] 1

[ask] Could you kindly confirm the outcome this assay logged for Nc1ccn(C2OC(CO)C(O)C2(F)F)c(=O)n1 (stereo not drawn) + NC1CCC(NC2CC2c2ccccc2)CC1 ?
[reply] 1

[ask] Test call, this molecule: CCc1c2c(nc3ccc(O)cc13)-c1cc3c(c(=O)n1C2)COC(=O)[C@]3(O)CC + NC1CCC(NC2CC2c2ccccc2)CC1
[reply] 1

[ask] Hi team, can someone confirm the assay call for Nc1ncn(C2CC(O)C(CO)S2)c(=O)n1 (stereo not drawn) + NC1CC1c1ccc(-c2cccc(O)c2)cc1 ?
[reply] 1
